Items are presented alongside their recorded pIC50.
test system: HCT-116; test: cells; conditions: Homo sapiens
pIC50 field: float, defined as -log10 of concentration (mol/L).

Answered examples (4):
entrysmiles=CCN(CC)Cc1cccc2[nH]c(-c3n[nH]c4ncc(-c5cncc6ccccc56)cc34)nc12 experimentalvalue=7.51
entrysmiles=COCc1cccc2[nH]c(-c3n[nH]c4ncc(-c5ccncc5)cc34)nc12 experimentalvalue=7.21
entrysmiles=CC(C)OCc1cccc2[nH]c(-c3n[nH]c4ncc(-c5cncc6ccccc56)cc34)nc12 experimentalvalue=5.54
entrysmiles=COCc1cccc2[nH]c(-c3n[nH]c4ncc(-c5cncc(CN(C)C)c5)cc34)nc12 experimentalvalue=6.72

Please look at the following compound next.
Asked: Quick one: pIC50 of "CNCc1cncc(-c2cnc3[nH]nc(-c4nc5c(COC)cccc5[nH]4)c3c2)c1" ?
Given back: 6.51
